- Assay overview: Cmax in Sprague-Dawley CD-1 rat plasma at 3 mg/kg, po administered as cassette dose via gavage measured up to 24 hrs by LC/MS analysis
- Format: ADME, organism-based
- Set-up: dose 3 mg/kg, route oral
Attribute measured: log10(Cmax) (log10 of the value in ng/mL)
// do not treat as linear: log10 of Cmax, unit ng/mL

INSERT INTO assay_data (compound_string, readout_value) VALUES
  ('Cn1cc(S(=O)(=O)N2CCC3=Cc4c(cnn4-c4ccc(F)cc4)C[C@]3(C(=O)c3cc(C(F)(F)F)ccn3)C2)nn1', 1.96),
  ('O=C(c1nccs1)[C@]12Cc3cnn(-c4ccc(F)cc4)c3C=C1CCN(S(=O)(=O)c1ccc(Cl)c(Cl)c1)C2', 2.29),
  ('Cn1cc(S(=O)(=O)N2CCC3=Cc4c(cnn4-c4ccc(F)cc4)C[C@]3(C(=O)c3ccccn3)C2)cn1', 2.18),
  ('Cc1cccc(S(=O)(=O)N2CCC3=Cc4c(cnn4-c4ccc(F)cc4)C[C@]3(C(=O)c3cc(C)ccn3)C2)c1', 1.04),
  ('CCn1cc(S(=O)(=O)N2CCC3=Cc4c(cnn4-c4ccc(F)cc4)C[C@]3(C(=O)c3cc(C(F)(F)F)ccn3)C2)cn1', 2.10),
  ('O=C(c1ccccn1)[C@]12Cc3cnn(-c4ccc(F)cc4)c3C=C1CCN(S(=O)(=O)c1ccc(C(F)(F)F)c(F)c1)C2', 2.10),
  ('Cc1ccnc(C(=O)[C@]23Cc4cnn(-c5ccc(F)cc5)c4C=C2CCN(S(=O)(=O)c2cccc(C#N)c2)C3)c1', 1.85),
  ('Cn1ncc(S(=O)(=O)N2CCC3=Cc4c(cnn4-c4ccc(F)cc4)C[C@]3(C(=O)c3cc(C(F)(F)F)ccn3)C2)n1', 2.41),
  ('O=C(c1nccs1)[C@]12Cc3cnn(-c4ccc(F)cc4)c3C=C1CCN(S(=O)(=O)c1cccc(C(F)(F)F)c1)C2', 2.01),
  ('Cc1cccc(S(=O)(=O)N2CCC3=Cc4c(cnn4-c4ccc(F)cc4)C[C@]3(C(=O)c3ccccn3)C2)c1', 1.49);

Prompt line: Which log10(Cmax) reading was recorded for the molecule `Cn1nccc1S(=O)(=O)N1CCC2=Cc3c(cnn3-c3ccc(F)cc3)C[C@]2(C(=O)c2cc(C(F)(F)F)ccn2)C1` ?
Response line: 2.38

Prompt line: Value lookup for log10(Cmax); key = `Cc1cnc(C(=O)[C@]23Cc4cnn(-c5ccc(F)cc5)c4C=C2CCN(S(=O)(=O)c2ccc(F)c(F)c2)C3)s1`
Response line: 1.48
